tested on: Ruminococcus gnavus DSM 108212; assay: growth (OD595) fold change vs plate DMSO controls (fold change (ratio)); higher = more growth; conditions: incubation time: 27 h, anaerobic, 37 °C
Structures can show the parent of a compound that is named as a salt.
Assay metric: growth

NC(=O)N1c2ccccc2C=Cc2ccccc21 [Carbamazepine] (20 µM) ... 1.17
CC[N+](C)(C)Cc1ccccc1Br [Bretylium tosylate] (20 µM) ... 0.996
O=C1CC[C@@H](C(=O)N2CSC[C@H]2C(=O)O)N1 [Pidotimod] (20 µM) ... 1.09

Please examine the following record next.
Reported growth ( CC(C)CN(C[C@@H](O)[C@H](Cc1ccccc1)NC(=O)O[C@H]1CO[C@H]2OCC[C@H]21)S(=O)(=O)c1ccc(N)cc1 [Darunavir] (20 µM) ) = 0.966

====

tested on: Ruminococcus gnavus DSM 108212; experiment: fold change of 2-Phenylethylamine concentration vs plate DMSO controls (fold change (ratio)); higher = more amine produced, active = hit call of the paper (significant change in both replicates, either direction); details: incubation time: 27 h, anaerobic, 37 °C;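 for the amine columns active = adjusted P below 0.05 in both replicates with a change the same way and a mean fold change under 0.8 or over 1.25; inactive = the rest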
Where a name gives a salt, the structure may show the parent alone.
Give one outcome, nothing more. List: active, inactive

Example results:
CC(C(=O)O)c1ccc2c(c1)[nH]c1ccc(Cl)cc12 (configuration not stated) [Carprofen] (20 µM) ... inactive
c1ccc2cc3c(ccc4ccccc43)cc2c1 [Benz[a]anthracene] (20 µM) ... inactive
CN(C)CCOC(c1ccc(Cl)cc1)c1ccccn1 (configuration not stated) [Carbinoxamine maleate salt] (20 µM) ... inactive
CC(=O)CC(c1ccc([N+](=O)[O-])cc1)c1c(O)c2ccccc2oc1=O (configuration not stated) [Acenocoumarol] (20 µM) ... inactive
N#C/C(=C1/SCC(c2ccccc2Cl)S1)n1ccnc1 (configuration not stated) [Lanoconazole] (20 µM) ... inactive
Cc1c(F)c(N2CCNC(C)C2)cc2c1c(=O)c(C(=O)O)cn2C1CC1 (configuration not stated) [Grepafloxacin] (20 µM) ... inactive
CN(C)CCOC(=O)C(c1ccccc1)C1(O)CCCC1 (configuration not stated) [Cyclopentolate hydrochloride] (20 µM) ... inactive
COC(=O)Nc1nc2cc(C(=O)c3cccs3)ccc2[nH]1 [Nocodazole] (20 µM) ... inactive

Q. Just curious, what result did COc1ccc(CC(C)NCC(O)c2ccc(O)c(NC=O)c2)cc1 (configuration not stated) [Formoterol fumarate] (20 µM) get here?
A. inactive

Q. Just curious, what result did CC1=C(/C=C/C(C)=C/C=C/C(C)=C/C(=O)O)C(C)(C)CCC1 [Retinoic acid] (20 µM) get here?
A. inactive

Q. Just curious, what result did CC1(C)S[C@@H]2[C@H](NC(=O)[C@H](C(=O)O)c3ccsc3)C(=O)N2[C@H]1C(=O)O [Ticarcillin sodium] (20 µM) get here?
A. active

Q. Just curious, what result did CNC[C@H](O)[C@@H](O)[C@H](O)[C@H](O)CO [Meglumine] (20 µM) get here?
A. inactive

Q. Just curious, what result did CCOC(=O)[C@H](CCc1ccccc1)N[C@@H](C)C(=O)N1Cc2ccccc2C[C@H]1C(=O)O [Quinapril hydrochloride] (20 µM) get here?
A. inactive

Q. Just curious, what result did CO/N=C1\CN(c2nc3c(cc2F)c(=O)c(C(=O)O)cn3C2CC2)CC1CN (configuration not stated) [Gemifloxacin mesylate] (20 µM) get here?
A. active

Q. Just curious, what result did Cc1c(OCC(F)(F)F)ccnc1C[S+]([O-])c1nc2ccccc2[nH]1 (configuration not stated) [Lansoprazole] (20 µM) get here?
A. inactive

Q. Just curious, what result did CCN(CC)CCNC(C(=O)OCCC(C)C)c1ccccc1 (configuration not stated) [Camylofine chlorhydrate] (20 µM) get here?
A. inactive

Q. Just curious, what result did Cc1ccc2c(c1)c1c3n2CCNC3CCC1 (configuration not stated) [Pirlindole mesylate] (20 µM) get here?
A. inactive

Values were extracted from the supplement of paper PMC12494721.
